Recorded values, source patent US7074789B2.

// endpoint pIC50 / system ErbB2 (Homo sapiens, UniProt P04626)
pIC50: −log10 of the molar value.

{"COMPOUND": "COc1cc(Nc2ncnc(-n3c(NCc4cccc(Br)c4)nc4ccccc43)n2)cc(OC)c1OC [Compound 946]", "VALUE_REPORTED": "< 5.10"}
{"COMPOUND": "COc1cc(Nc2ncnc(Nc3cc(-c4ccc(C)cc4)n[nH]3)n2)cc(OC)c1OC [Compound 521]", "VALUE_REPORTED": "5.26 to 6.03"}
{"COMPOUND": "O=C(O)Cc1cccc(Nc2ncnc(Nc3cc(-c4ccccc4)n[nH]3)n2)c1 [Compound 981]", "VALUE_REPORTED": "5.21 to 5.99"}

Then this compound:
Enquiry: Item COc1cc(Nc2ncnc(-c3cccnc3NC(C)c3ccccc3)n2)cc(OC)c1OC (stereo not shown) [Compound 843] with ErbB2 (Homo sapiens, UniProt P04626) - pIC50?
Return: 5.01 to 5.12

====

- TARGET_OR_SYSTEM: Lck (Homo sapiens, UniProt P06239)
- Construct: Kinases are expressed as either kinase domains or full length constructs; made in house
- Sequence (P06239 whole entry, species assumed, the tested form may be a part): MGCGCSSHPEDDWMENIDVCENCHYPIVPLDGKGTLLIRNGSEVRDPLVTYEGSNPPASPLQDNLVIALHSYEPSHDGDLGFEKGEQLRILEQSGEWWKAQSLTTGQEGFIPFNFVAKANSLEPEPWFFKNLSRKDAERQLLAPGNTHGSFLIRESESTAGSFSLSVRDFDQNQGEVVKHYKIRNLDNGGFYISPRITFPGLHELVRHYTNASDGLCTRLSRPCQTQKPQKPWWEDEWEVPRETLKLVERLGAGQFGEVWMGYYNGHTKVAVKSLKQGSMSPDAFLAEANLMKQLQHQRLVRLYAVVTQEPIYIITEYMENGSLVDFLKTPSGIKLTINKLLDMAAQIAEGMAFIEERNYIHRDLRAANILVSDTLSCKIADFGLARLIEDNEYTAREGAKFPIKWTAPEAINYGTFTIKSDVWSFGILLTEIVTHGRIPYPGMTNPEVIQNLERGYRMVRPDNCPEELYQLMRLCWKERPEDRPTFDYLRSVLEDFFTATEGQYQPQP
- TEST_DETAILS: Kinase inhibition assay (33P transfer), Lck
- Format: biochemical
- EXPERIMENTAL_CONDITIONS: Table 3, class symbols; read-out: Lck-1
REPORTED_PROPERTY: IC50

The following molecules have reported results that may help.
{"STRUCTURE_NOTATION": "COc1cc(Nc2ncnc(-c3cccnc3Nc3ccc(Cl)cc3C)n2)cc(OC)c1OC", "IC50": "> 9.4 µM"}
{"STRUCTURE_NOTATION": "COc1cc(Nc2ncnc(N(CCO)c3ccccc3)n2)cc(OC)c1OC", "IC50": "1.01 to 6.04 µM"}
{"STRUCTURE_NOTATION": "CN(c1cccc(Cl)c1)c1ncnc(Nc2ccc3c(cnn3C)c2)n1", "IC50": "1.09 to 6.56 µM"}

Enquiry: What value of IC50 has been recorded for this entry: Nc1nc2ccccc2n1-c1ncnc(Nc2cccc(Cn3ccnn3)c2)n1
Return: 1.04 to 6.24 µM

Enquiry: What value of IC50 has been recorded for this entry: COc1cc(Nc2ncnc(-c3cccnc3Nc3ccccc3C)n2)cc(OC)c1OC
Return: < 0.9 µM

====

- TARGET_OR_SYSTEM: Zap-70 (Homo sapiens)
- Construct: Kinases are expressed as either kinase domains or full length constructs; made in house
- Sequence (P43403 1-619): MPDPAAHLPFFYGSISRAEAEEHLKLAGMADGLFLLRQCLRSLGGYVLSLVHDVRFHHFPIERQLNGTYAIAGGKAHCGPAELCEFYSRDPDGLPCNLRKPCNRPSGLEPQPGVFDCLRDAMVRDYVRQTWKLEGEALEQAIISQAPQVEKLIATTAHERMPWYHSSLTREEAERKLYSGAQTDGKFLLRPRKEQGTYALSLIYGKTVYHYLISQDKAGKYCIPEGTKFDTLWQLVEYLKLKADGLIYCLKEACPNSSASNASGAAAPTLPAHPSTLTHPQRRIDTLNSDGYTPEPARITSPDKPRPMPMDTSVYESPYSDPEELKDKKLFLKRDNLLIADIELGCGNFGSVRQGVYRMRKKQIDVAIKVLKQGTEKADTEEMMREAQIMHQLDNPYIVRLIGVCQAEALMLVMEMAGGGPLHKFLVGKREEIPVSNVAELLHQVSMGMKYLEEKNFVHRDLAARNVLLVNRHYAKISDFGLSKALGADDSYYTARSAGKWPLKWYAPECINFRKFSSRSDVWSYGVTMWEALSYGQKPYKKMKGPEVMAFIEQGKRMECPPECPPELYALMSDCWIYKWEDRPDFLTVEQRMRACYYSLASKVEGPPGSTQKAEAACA
- TEST_DETAILS: Kinase inhibition assay (33P transfer), Zap-70
- Assay type: biochemical
- EXPERIMENTAL_CONDITIONS: read-out: Zap-1
pIC50: −log10 of the molar value.
REPORTED_PROPERTY: pIC50

The following compounds have reported results that may help.
{"COMPOUND": "CCN1CCCC1CNc1ncnc(Nc2ccc(OC)c(OC)c2)n1 (centres unmarked)", "pIC50": "< 4.90"}
{"COMPOUND": "CC(=O)N1CCc2cc(Nc3ncnc(N4CCCc5cc(C)ccc54)n3)ccc21", "pIC50": "< 4.95"}
{"COMPOUND": "COc1cc(Nc2ncnc(-n3c(NCc4cccc(C)c4)nc4ccccc43)n2)cc(OC)c1OC", "pIC50": "< 5.04"}

Enquiry: What value of pIC50 has been recorded for this entry: Cc1ccc2c(c1)CCCN2c1ncnc(NCCN2CCOCC2)n1
Return: < 4.90

Enquiry: What value of pIC50 has been recorded for this entry: Cc1ccc(Nc2ncnc(Nc3cccc(CC(=O)O)c3)n2)cc1O
Return: < 4.89

====

- TARGET_OR_SYSTEM: EGFR (Homo sapiens)
- Construct: Kinases are expressed as either kinase domains or full length constructs; made in house
- Sequence (P00533 25-1210, species assumed): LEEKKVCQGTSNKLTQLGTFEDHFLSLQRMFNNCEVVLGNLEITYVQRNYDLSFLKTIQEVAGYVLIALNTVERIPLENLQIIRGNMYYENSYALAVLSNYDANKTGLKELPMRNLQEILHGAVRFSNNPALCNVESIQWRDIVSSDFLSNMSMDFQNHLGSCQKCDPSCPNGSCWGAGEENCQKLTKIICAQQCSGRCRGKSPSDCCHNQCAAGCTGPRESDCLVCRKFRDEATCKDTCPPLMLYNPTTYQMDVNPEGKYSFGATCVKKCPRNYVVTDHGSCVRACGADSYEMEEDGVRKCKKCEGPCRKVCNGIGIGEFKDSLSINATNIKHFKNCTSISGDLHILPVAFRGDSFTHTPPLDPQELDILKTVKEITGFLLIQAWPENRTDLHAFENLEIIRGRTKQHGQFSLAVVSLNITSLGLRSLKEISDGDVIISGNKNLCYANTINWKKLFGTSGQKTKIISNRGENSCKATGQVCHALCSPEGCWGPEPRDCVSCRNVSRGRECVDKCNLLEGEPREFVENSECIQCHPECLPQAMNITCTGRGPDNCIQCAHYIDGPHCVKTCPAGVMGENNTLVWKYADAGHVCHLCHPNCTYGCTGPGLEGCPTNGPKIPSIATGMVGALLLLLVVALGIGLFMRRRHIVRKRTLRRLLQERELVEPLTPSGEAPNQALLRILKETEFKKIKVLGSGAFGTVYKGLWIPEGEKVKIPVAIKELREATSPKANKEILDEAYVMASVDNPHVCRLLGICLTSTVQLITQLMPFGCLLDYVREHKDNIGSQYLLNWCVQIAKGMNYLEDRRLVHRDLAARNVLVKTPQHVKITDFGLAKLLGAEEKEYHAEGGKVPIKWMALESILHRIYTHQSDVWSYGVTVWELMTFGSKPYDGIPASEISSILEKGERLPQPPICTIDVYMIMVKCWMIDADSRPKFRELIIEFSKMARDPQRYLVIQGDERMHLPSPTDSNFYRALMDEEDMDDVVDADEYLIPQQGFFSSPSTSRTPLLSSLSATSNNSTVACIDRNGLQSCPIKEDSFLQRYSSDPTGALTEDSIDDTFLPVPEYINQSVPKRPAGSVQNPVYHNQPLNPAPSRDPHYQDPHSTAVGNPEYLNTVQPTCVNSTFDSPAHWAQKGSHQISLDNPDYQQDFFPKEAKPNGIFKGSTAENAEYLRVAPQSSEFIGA
- TEST_DETAILS: Kinase inhibition assay (33P transfer), EGFR
- Assay type: biochemical
- EXPERIMENTAL_CONDITIONS: Table 2, kinase inhibition class; read-out: EGFR-1
# IC50 per record follows

{"MOLECULE": "FC(F)C(F)(F)Oc1cccc(Nc2ncnc(-c3ccnc(Cl)c3)n2)c1 [Compound 330]", "VALUE_REPORTED": "> 11.3 µM"}

Enquiry: What value of IC50 has been recorded for this entry: COc1cc(Nc2ncnc(-n3c(NCc4cccc([N+](=O)[O-])c4)nc4ccccc43)n2)cc(OC)c1OC [Compound 572]
Return: > 8.51 µM

====

- TARGET_OR_SYSTEM: Itk (Homo sapiens, UniProt Q08881)
- Construct: Kinases are expressed as either kinase domains or full length constructs; made in house
- Sequence (Q08881 whole entry, species assumed, the tested form may be a part): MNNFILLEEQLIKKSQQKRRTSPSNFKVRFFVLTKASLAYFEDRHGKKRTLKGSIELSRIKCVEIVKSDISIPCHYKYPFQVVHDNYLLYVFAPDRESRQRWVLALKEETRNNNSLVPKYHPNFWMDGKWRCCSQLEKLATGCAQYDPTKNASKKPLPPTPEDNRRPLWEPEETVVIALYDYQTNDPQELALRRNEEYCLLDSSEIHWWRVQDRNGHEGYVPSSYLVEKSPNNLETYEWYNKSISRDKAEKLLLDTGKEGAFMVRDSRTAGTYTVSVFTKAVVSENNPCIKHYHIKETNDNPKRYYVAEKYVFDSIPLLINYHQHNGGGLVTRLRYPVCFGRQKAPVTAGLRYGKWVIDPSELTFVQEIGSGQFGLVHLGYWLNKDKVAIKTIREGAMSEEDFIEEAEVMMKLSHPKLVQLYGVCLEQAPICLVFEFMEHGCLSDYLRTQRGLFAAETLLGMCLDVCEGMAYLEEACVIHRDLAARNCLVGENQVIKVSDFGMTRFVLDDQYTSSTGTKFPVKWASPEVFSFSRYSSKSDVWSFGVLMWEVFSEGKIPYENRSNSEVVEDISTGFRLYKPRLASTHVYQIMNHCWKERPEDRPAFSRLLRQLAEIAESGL
- TEST_DETAILS: Kinase inhibition assay (33P transfer), Itk
- Assay type: biochemical
- EXPERIMENTAL_CONDITIONS: Table 3, class symbols; read-out: Itk-1
REPORTED_PROPERTY: IC50

{"MOLECULE": "Cc1ccc(Cl)cc1Nc1ncnc(N2c3ccc(F)cc3CCC2C)n1 (centres unmarked)", "IC50": "9.12 to 11.7 µM"}
{"MOLECULE": "CN(c1cccc(Cl)c1)c1ncnc(Nc2ccc3nn(C)cc3c2)n1", "IC50": "> 12.3 µM"}

Enquiry: What value of IC50 has been recorded for this entry: Cc1ccc(Cl)cc1Nc1ncnc(Nc2cc(Cl)ccc2C)n1
Return: > 12.5 µM

Enquiry: What value of IC50 has been recorded for this entry: COc1ccc(Nc2ncnc(Nc3ccc(F)c(F)c3)n2)cc1OC
Return: 9.74 to 12.5 µM

Enquiry: What value of IC50 has been recorded for this entry: COc1ccc(Nc2ncnc(Nc3cc(-c4ccc(C)cc4)n[nH]3)n2)c(C)c1
Return: 1.03 to 6.19 µM

====

# pIC50 per record follows
- TARGET_OR_SYSTEM: AKT (Homo sapiens)
- Construct: Kinases are expressed as either kinase domains or full length constructs; made in house
- Sequence (Q9Y243 whole entry, the tested form may be a part): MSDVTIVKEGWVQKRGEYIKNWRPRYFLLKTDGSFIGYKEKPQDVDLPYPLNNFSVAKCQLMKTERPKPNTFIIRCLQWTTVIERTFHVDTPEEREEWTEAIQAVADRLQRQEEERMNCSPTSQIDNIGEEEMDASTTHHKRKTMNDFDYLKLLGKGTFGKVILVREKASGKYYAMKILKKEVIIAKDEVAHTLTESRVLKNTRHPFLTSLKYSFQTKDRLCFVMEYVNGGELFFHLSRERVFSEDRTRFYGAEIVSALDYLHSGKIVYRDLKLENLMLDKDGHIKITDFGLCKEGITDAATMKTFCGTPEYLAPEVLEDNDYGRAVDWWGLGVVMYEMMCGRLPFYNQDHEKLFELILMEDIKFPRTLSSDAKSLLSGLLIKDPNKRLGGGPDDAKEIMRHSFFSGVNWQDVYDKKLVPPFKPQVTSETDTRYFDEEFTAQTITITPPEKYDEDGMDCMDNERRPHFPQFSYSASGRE
- TEST_DETAILS: Kinase inhibition assay (33P transfer), AKT
- Assay type: biochemical
- EXPERIMENTAL_CONDITIONS: Table 2, kinase inhibition class; read-out: AKT3-1
pIC50: −log10 of the molar value.

The following compounds have reported results that may help.
{"COMPOUND": "COc1cc(Nc2ncnc(N3CCN(C)CC3)n2)cc(OC)c1OC [Compound 212]", "TARGET_OR_SYSTEM": "AKT (Homo sapiens)", "pIC50": "< 4.90"}
{"COMPOUND": "O=C(O)Cc1ccc(Nc2ncnc(Nc3cc(-c4ccco4)n[nH]3)n2)cc1 [Compound 984]", "TARGET_OR_SYSTEM": "AKT (Homo sapiens)", "pIC50": "< 4.92"}
{"COMPOUND": "O=c1[nH]c2ccccc2n1-c1ncnc(Nc2ccc(-c3cnco3)cc2)n1 [Compound 379]", "TARGET_OR_SYSTEM": "AKT (Homo sapiens)", "pIC50": "< 4.92"}
{"COMPOUND": "CCN(CC)c1ccc(Nc2ncnc(N3CCCc4cc(C)ccc43)n2)cc1 [Compound 779]", "TARGET_OR_SYSTEM": "AKT (Homo sapiens)", "pIC50": "< 4.94"}
{"COMPOUND": "COc1cc(Nc2ncnc(N3c4ccccc4CC3C)n2)cc(OC)c1OC (stereo not drawn) [Compound 610]", "TARGET_OR_SYSTEM": "AKT (Homo sapiens)", "pIC50": "< 4.94"}

Enquiry: Item COc1cc(Nc2ncnc(-n3c(N)nc4ccccc43)n2)cc(OCCN2CCOCC2)c1OC [Compound 466] with AKT (Homo sapiens) - pIC50?
Return: < 5.04

Enquiry: Item COc1cc(Nc2ncnc(Oc3ccc(OCc4ccccc4)cc3)n2)cc(OC)c1OC [Compound 530] with AKT (Homo sapiens) - pIC50?
Return: < 5.01

Enquiry: Item COc1cc(Nc2ncnc(-n3c(NC4CCCc5ccccc54)nc4ccccc43)n2)cc(OC)c1OC (stereo not drawn) [Compound 587] with AKT (Homo sapiens) - pIC50?
Return: < 5.07

Enquiry: Item COC(=O)c1sccc1Nc1ncnc(N2CCCc3cc(C)ccc32)n1 [Compound 767] with AKT (Homo sapiens) - pIC50?
Return: < 4.93

Enquiry: Item O=c1[nH]c2ccccc2n1-c1ncnc(Nc2ccccc2Cl)n1 [Compound 484] with AKT (Homo sapiens) - pIC50?
Return: < 4.88
